This collection of values is drawn from ChEMBL document CHEMBL4342509.

Experiment: Toxicity in orally dosed Swiss mouse administered once daily for 5 days
Format: organism-based
Settings: in vivo, po
measurement name: NOAEL at 120 h (mg/kg)
Give bare numbers, in mg/kg.

**Query** # get_value(readout='NOAEL at 120 h', item= O=c1[nH]c2c([N+](=O)[O-])cc(Br)cc2cc1Cl )
**Result** 25

----------
I'd be grateful if you could share measured EC50 for these entries.
Tested on: Leishmania donovani
Experiment: Antileishmanial activity against wild type Leishmania donovani BOB (MHOM/SD/62/1S-CL2D) promastigotes assessed as inhibition of parasite growth incubated for 72 hrs by resazurin dye based assay
Type: functional, organism-based

{"columns": ["smiles data", "EC50"],
 "data": [
  ["O=c1[nH]c2c([N+](=O)[O-])cccc2cc1Br", "5.9 µM"]
]}

Quick one: give me EC50 for each item below, same order please.
1. O=c1[nH]c2c([N+](=O)[O-])cc(Br)cc2cc1Cl
2. O=c1[nH]c2c([N+](=O)[O-])cc(C(F)(F)F)cc2cc1Br

**Result**
1: 4.7 µM; 2: 4.1 µM

**Query** Lookup: EC50 / Leishmania donovani / O=C(O)c1ccc(-c2cc3cc(Br)cc([N+](=O)[O-])c3[nH]c2=O)cc1
**Result** 2 µM
